Molecular target: T1, SRA.mmh
T1 construct: also called SRA.mmh (CHO)
T1 antigen: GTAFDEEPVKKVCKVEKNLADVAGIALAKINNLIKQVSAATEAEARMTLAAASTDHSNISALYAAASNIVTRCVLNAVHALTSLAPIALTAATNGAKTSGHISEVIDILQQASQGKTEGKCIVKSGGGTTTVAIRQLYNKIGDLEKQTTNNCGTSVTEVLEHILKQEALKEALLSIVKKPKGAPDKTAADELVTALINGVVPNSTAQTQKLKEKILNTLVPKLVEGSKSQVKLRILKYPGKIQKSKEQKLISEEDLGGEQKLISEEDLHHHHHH
Assay: Octet, mAb-2 at 50 ug/mL on captured SRA.mmh after negative control α-PRLR H1H6800P as mAb-1 (row 32 (-))
List of Binding of mAb-2 to SRA Pre-complexed with mAb-1 values.
Number only, no unit.

Previously resolved entries follow.
| binder | recorded-value |
| --- | --- |
| H1H10064P (antibody, V domains shown, Fully human antibody with human IgG1 Fc (prefix H1H)) VH: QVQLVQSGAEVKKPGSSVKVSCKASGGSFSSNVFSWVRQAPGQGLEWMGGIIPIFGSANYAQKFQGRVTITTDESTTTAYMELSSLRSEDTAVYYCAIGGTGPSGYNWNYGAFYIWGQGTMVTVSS VL: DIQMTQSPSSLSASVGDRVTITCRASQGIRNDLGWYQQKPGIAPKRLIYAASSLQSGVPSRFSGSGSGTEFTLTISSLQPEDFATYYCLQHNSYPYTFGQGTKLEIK | 1.22 |
| H1H10056P (antibody, V domains shown, Fully human antibody with human IgG1 Fc (prefix H1H)) VH: QVQLVESGGGVVQPGRSLRLSCSASGFTFSLYGMHWIRQAPGKGLEWVAVISYDGSNTYYGDSVKGRFTISRDNSKNTLYLQMNSLRTEDTAIYYCAKVYNWNYLFDYWGQGTLVTVSS VL: EIVLTQSPDTLSLSPGERATLSCRASQNVNNNFLAWYQQKPGQAPRLLIYGASSRATDIPERFSGSGSGTDFTLTISRLEPEDFAVYYCLHYVNSRTFGQGTKVEIK | 1.28 |

// switching to the query binder
Find the measured Binding of mAb-2 to SRA Pre-complexed with mAb-1 of H1H10061P (antibody, V domains shown, Fully human antibody with human IgG1 Fc (prefix H1H)) VH: QVQLVESGGGVVQPGNSLRLSCAASGFTFSAYGMHWVRQAPGKGLEWVAVISYDGSNEFYADSVKGRFTIFRDNSKNMLYLQMNSLRVEDTSIYYCAKDRGLGVYYFFYGMDVWGQGTTVTVSS VL: DIVMTQSPDSLVVSLGERATINCKSSQSLLYSSSNNNYLTWYQQKPGRPPKLLIYWASTRESGVPDRFSGSGSGTDFTLTISSLQAEDVAIYYCQQNYITPLTFGGGTKVEIK and report it.
1.53
